# test.details: Oxidation stability of QH crystals on storage at 40° C. and 75% RH (HPLC of reduced and oxidized coenzyme Q10)
# Assay type: physicochemical
# experimental.conditions: crystal stored at 40° C. and 75% RH for approximately 1 month; decrease in relative QH ratio divided by days of storage
assay.endpoint: Oxidizing rate (%/day)
Please respond with the number in %/day and leave the unit unwritten.

COc1c(O)c(C)c(C/C=C(\C)CC/C=C(\C)CC/C=C(\C)CC/C=C(\C)CC/C=C(\C)CC/C=C(\C)CC/C=C(\C)CC/C=C(\C)CC/C=C(\C)CCC=C(C)C)c(O)c1OC [Example 3, reduced coenzyme Q10] = 0.23

Kindly consider the entry below.
Q: What does the data say about its Oxidizing rate? Entry: COc1c(O)c(C)c(C/C=C(\C)CC/C=C(\C)CC/C=C(\C)CC/C=C(\C)CC/C=C(\C)CC/C=C(\C)CC/C=C(\C)CC/C=C(\C)CC/C=C(\C)CCC=C(C)C)c(O)c1OC [Comparative Example 2, reduced coenzyme Q10]
Result: 0.42

----------
# test.details: Oxidation stability of QH crystals on storage at 40° C. and 75% RH (HPLC of reduced and oxidized coenzyme Q10)
# Assay type: physicochemical
# experimental.conditions: crystal stored at 40° C. and 75% RH for 28 days; QH ratio before storage = 100
The following compounds are shown together with reported Relative QH ratio values.

COc1c(O)c(C)c(C/C=C(\C)CC/C=C(\C)CC/C=C(\C)CC/C=C(\C)CC/C=C(\C)CC/C=C(\C)CC/C=C(\C)CC/C=C(\C)CC/C=C(\C)CCC=C(C)C)c(O)c1OC [Example 2, reduced coenzyme Q10] = 92.6 (when stored %
COc1c(O)c(C)c(C/C=C(\C)CC/C=C(\C)CC/C=C(\C)CC/C=C(\C)CC/C=C(\C)CC/C=C(\C)CC/C=C(\C)CC/C=C(\C)CC/C=C(\C)CCC=C(C)C)c(O)c1OC [Comparative Example 2, reduced coenzyme Q10] = 88.2 (when stored %
COc1c(O)c(C)c(C/C=C(\C)CC/C=C(\C)CC/C=C(\C)CC/C=C(\C)CC/C=C(\C)CC/C=C(\C)CC/C=C(\C)CC/C=C(\C)CC/C=C(\C)CCC=C(C)C)c(O)c1OC [Example 3, reduced coenzyme Q10] = 93.5 (when stored %

Kindly consider the entry below.
Q: What does the data say about its Relative QH ratio? Entry: COc1c(O)c(C)c(C/C=C(\C)CC/C=C(\C)CC/C=C(\C)CC/C=C(\C)CC/C=C(\C)CC/C=C(\C)CC/C=C(\C)CC/C=C(\C)CC/C=C(\C)CCC=C(C)C)c(O)c1OC [Example 1, reduced coenzyme Q10]
Result: 91.6 (when stored %
